# System: 192522-019-R-J2-PDC complex tumor spheroid viability
# test_details: Anticancer human tumor 192522-019-R-J2-PDC patient-derived colon adenocarcinoma cell line growth inhibition [POLQ]
# measurement_parameters: second compound 0.316 µM; first compound 10 µM; stronger effect = lower value
Each entry below lists one item and its recorded viability, T/C value.
Entry rule: numbers only, all in %.

Known viability, T/C results, listed for orientation:
{"columns": ["compound", "observed_value"],
 "data": [
  ["O=C(Nc1ccc(O)c(NS(=O)(=O)c2ccc(F)cc2)c1)c1ccc(-c2ccccc2)cc1 + COC1C(OC(N)=O)C(O)C(Oc2ccc3c(O)c(NC(=O)c4ccc(O)c(CC=C(C)C)c4)c(=O)oc3c2C)OC1(C)C", 96.6],
  ["O=c1[nH]cc(F)c(=O)[nH]1 + Nc1ccc(C#CCN(C(=O)Cc2ncc(C(F)(F)F)cc2C(F)(F)F)c2ccc(F)cc2)nn1", 96.4],
  ["Nc1ccn(C2OC(CO)C(O)C2(F)F)c(=O)n1 (stereo not given) + Nc1ccc(C#CCN(C(=O)Cc2ncc(C(F)(F)F)cc2C(F)(F)F)c2ccc(F)cc2)nn1", 69.7]
]}

In: Form field: reported viability, T/C of C#Cc1c(F)ccc2cc(O)cc(-c3ncc4c(N5CC6CCC(C5)N6)nc(OCC56CCCN5CC(F)C6)nc4c3F)c12 (stereo not given) + COC1C(OC(N)=O)C(O)C(Oc2ccc3c(O)c(NC(=O)c4ccc(O)c(CC=C(C)C)c4)c(=O)oc3c2C)OC1(C)C
Out: 72.1

In: Form field: reported viability, T/C of COc1cccc2c1C(=O)c1c(O)c3c(c(O)c1C2=O)CC(O)(C(=O)CO)CC3OC1CC(N)C(O)C(C)O1 (stereo not given) + COC1C(OC(N)=O)C(O)C(Oc2ccc3c(O)c(NC(=O)c4ccc(O)c(CC=C(C)C)c4)c(=O)oc3c2C)OC1(C)C
Out: 55.6

---

# Test system: 192522-019-R-J2-PDC complex tumor spheroid viability
# test_details: Anticancer human tumor 192522-019-R-J2-PDC cell line growth inhibition [POLQ];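 note: spheroids exposed to drugs for seven days before reading; 100% = DMSO vehicle control viability in luminescence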
# measurement_parameters: second compound 1 µM; first compound 0.0316 µM; stronger effect = lower value
# Description: Multicellular complex tumor spheroid response to Polymerase (POL) inhibitors (novobiocin, ART-558, RP6685) in combination with a variety of drugs and investigational agents in selected tumor cell lines The POL inhibitors (novobiocin, ART-558, and RP6685) were evaluated both individually and in combination with standard of care and investigational anticancer small molecules within a complex spheroid model of solid tumors. . […]
Each entry below lists one item and its recorded viability, T/C value.
Entry rule: numbers only, all in %.

Known viability, T/C results, listed for orientation:
{"columns": ["compound", "assay_system", "result_type", "units_of_measure", "observed_value"],
 "data": [
  ["CCc1c2c(nc3ccc(O)cc13)-c1cc3c(c(=O)n1C2)COC(=O)[C@]3(O)CC + Nc1ccc(C#CCN(C(=O)Cc2ncc(C(F)(F)F)cc2C(F)(F)F)c2ccc(F)cc2)nn1", "192522-019-R-J2-PDC complex tumor spheroid viability", "viability, T/C", "%", 69.8],
  ["CCc1cc2c(N3CCc4c(cc(Cn5ccnc5)cc4-c4cn(C)nc4C(F)(F)F)C3=O)ccnc2c(OC)n1 + Nc1ccc(C#CCN(C(=O)Cc2ncc(C(F)(F)F)cc2C(F)(F)F)c2ccc(F)cc2)nn1", "192522-019-R-J2-PDC complex tumor spheroid viability", "viability, T/C", "%", 99.7],
  ["CCc1c2c(nc3ccc(O)cc13)-c1cc3c(c(=O)n1C2)COC(=O)[C@]3(O)CC + COC1C(OC(N)=O)C(O)C(Oc2ccc3c(O)c(NC(=O)c4ccc(O)c(CC=C(C)C)c4)c(=O)oc3c2C)OC1(C)C", "192522-019-R-J2-PDC complex tumor spheroid viability", "viability, T/C", "%", 57.9]
]}

Turning now to a further record.
In: Form field: reported viability, T/C of CCc1cc2c(N3CCc4c(cc(Cn5ccnc5)cc4-c4cn(C)nc4C(F)(F)F)C3=O)cc(C)nc2c(OC)n1 + COC1C(OC(N)=O)C(O)C(Oc2ccc3c(O)c(NC(=O)c4ccc(O)c(CC=C(C)C)c4)c(=O)oc3c2C)OC1(C)C
Out: 99
